Reference source for all entries: paper PMC8922279

Kindly state Mtb H37Rv R + CLAV (MIC90) for each of the entries shown.
- Test system: Mtb H37Rv
- Assay notes: MIC90 against replicating (R) Mtb H37Rv, with or without clavulanate
- Type: cell-based, Mycobacterium tuberculosis
- Test context: clavulanate 4 μg/mL, Table S4
Give your result as the value with the unit written after it.

Exercise: Would you mind telling me what Mtb H37Rv R + CLAV (MIC90) value was observed for C=CCn1nnnc1SCC1=C(C(=O)O)N2C(=O)[C@@H](NC(=O)Cc3ccc(C4=NCCN4)cc3)[C@H]2SC1 ?
Solution: 0.8 µM

Exercise: I'd like to know its Mtb H37Rv R + CLAV (MIC90). The compound in question is O=C(Cc1cccs1)N[C@@H]1C(=O)N2C(C(=O)O)=C(C[n+]3ccccn3)CS[C@H]12
Solution: 1.8 µM

Exercise: Value lookup for Mtb H37Rv R + CLAV (MIC90); key = CC1=C(C(=O)O)N2C(=O)[C@@H](NC(=O)CSc3ccc(C(=N)N)cc3)[C@H]2SC1
Solution: 1.4 µM

Exercise: Sample O=C(Cc1cccs1)N[C@@H]1C(=O)N2C(C(=O)[O-])=C(C[n+]3ccccc3)CS[C@H]12 — what was its Mtb H37Rv R + CLAV (MIC90)?
Solution: 2.2 µM

====

pIC50: −log10 of the molar value.
Attribute measured: pIC50

Exercise: Request body: readout pIC50, system CYP3A4 (Homo sapiens, UniProt P08684), query O=C(Cc1ccc(C2=NCCN2)cc1)N[C@@H]1C(=O)N2C(C(=O)O)=C(CSc3nncs3)CS[C@H]12 . Return the value.
Solution: < 4.60

====

- Assay notes: physchem
- Assay type: physicochemical
- Test context: pH 7.4, aqueous buffer, thermodynamic from solid
Attribute measured: solubility

Exercise: Form field: reported solubility of O=C(Cc1ccc(C2=NCCN2)cc1)N[C@@H]1C(=O)N2C(C(=O)O)=C(CSc3nncs3)CS[C@H]12 [TBBL-0000316]
Solution: > 1000 µg/mL

====

- Test system: E. coli
- Assay notes: Microbial spectrum, E. coli
- Assay type: cell-based, Escherichia coli
- Test context: clavulanate 4 μg/mL; Table S4
I'd be grateful if you could share measured log10 E.coli R + CLAV (MIC90) for these entries.
Values reflect log10 of reported E.coli R + CLAV (MIC90) (µM).

Exercise: Please look up its log10 E.coli R + CLAV (MIC90): CON=C(C(=O)N[C@@H]1C(=O)N2C(C(=O)O)=C(CSc3cccc[n+]3[O-])CS[C@H]12)c1csc(N)n1
Solution: 1.12

Exercise: What does the record list as log10 E.coli R + CLAV (MIC90) for O=C(Cc1cccs1)N[C@@H]1C(=O)N2C(C(=O)O)=C(C[n+]3ccccn3)CS[C@H]12 ?
Solution: 1.55

Exercise: Form field: reported log10 E.coli R + CLAV (MIC90) of Cn1nnnc1SCC1=C(C(=O)O)N2C(=O)[C@@H](NC(=O)Cc3ccc(C4=NCCCN4)cc3)[C@H]2SC1
Solution: 1.31

Exercise: Can you look up the measured log10 E.coli R + CLAV (MIC90) of Cc1nnc(SCC2=C(C(=O)O)N3C(=O)[C@@H](NC(=O)CSc4cc(Cl)ccc4Cl)[C@H]3SC2)s1 for me?
Solution: 1.36

Exercise: Entry under review: O=C(CCCC(NC(=O)c1ccc(Cl)cc1Cl)C(=O)O)N[C@@H]1C(=O)N2C(C(=O)O)=C(CSc3cccc[n+]3[O-])CS[C@H]12 (stereo partly shown) . Reported log10 E.coli R + CLAV (MIC90)?
Solution: 1.97

Exercise: Param item = O=C(Cc1cccs1)N[C@@H]1C(=O)N2C(C(=O)O)=C(CSc3cccc[n+]3[O-])CS[C@H]12 ; retrieve measured log10 E.coli R + CLAV (MIC90).
Solution: 1.43

Exercise: What value of measured log10 E.coli R + CLAV (MIC90) is listed for CC(O)Cn1nnnc1SCC1=C(C(=O)O)N2C(=O)[C@@H](NC(=O)Cc3csc(=O)s3)[C@H]2SC1 (stereo partly shown) ?
Solution: 0.58

Exercise: Recorded log10 E.coli R + CLAV (MIC90) for O=C(Cc1ccc(C2=NCCN2)cc1)N[C@@H]1C(=O)N2C(C(=O)O)=C(CSc3nncs3)CS[C@H]12 , please?
Solution: 1.50

Exercise: Quick one: log10 E.coli R + CLAV (MIC90) for O=C(Cn1cnnn1)N[C@@H]1C(=O)N2C(C(=O)O)=C(CSc3cccc[n+]3[O-])CS[C@H]12 ?
Solution: 1.18

Exercise: Would you kindly share the measured log10 E.coli R + CLAV (MIC90) for NCc1ccccc1CC(=O)N[C@@H]1C(=O)N2C(C(=O)O)=C(CSc3nnnn3CCO)CS[C@H]12 ?
Solution: 0.99

Exercise: Record request: log10 E.coli R + CLAV (MIC90) value, item CCn1nnnc1SCC1=C(C(=O)O)N2C(=O)[C@@H](NC(=O)Cc3ccc(C4=NCCN4)cc3)[C@H]2SC1
Solution: 1.06

Exercise: Look at this molecule and give its reported log10 E.coli R + CLAV (MIC90). Cn1nnnc1SCC1=C(C(=O)O)N2C(=O)[C@@H](NC(=O)Cc3ccc(C4=NCCN4)cc3)[C@H]2SC1
Solution: 1.15

Exercise: GET /values?readout=log10 E.coli R + CLAV (MIC90)&item= O=C(Cc1cccs1)N[C@@H]1C(=O)N2C(C(=O)[O-])=C(C[n+]3ccccc3)CS[C@H]12
Solution: 1.58

Exercise: Value lookup for log10 E.coli R + CLAV (MIC90); key = CC=CC(=O)OCC1=C(C(=O)O)N2C(=O)[C@@H](NC(=O)C(=NO)c3cccs3)[C@H]2SC1
Solution: 1.62

====

- Assay notes: in vitro
- Test context: human, plasma, Plasma stability % Remaining
For each record, write down the corresponding remaining at 2 h, 2 μM.
# output: bare number, implied unit %

Exercise: Quick check: remaining at 2 h, 2 μM of O=C(O)C1=C(CSc2cccc[n+]2[O-])CS[C@@H]2[C@H](NC(=O)/C(=N\Oc3ccccc3)c3ccco3)C(=O)N12 [TBBL-0000005] ?
Solution: 73.7

Exercise: I am curious: what remaining at 2 h, 2 μM value has been reported for O=C(CCCC(NC(=O)c1ccc(Cl)cc1Cl)C(=O)O)N[C@@H]1C(=O)N2C(C(=O)O)=C(CSc3cccc[n+]3[O-])CS[C@H]12 (some centres unmarked) [TBBL-0000552] ?
Solution: 78.6

Exercise: remaining at 2 h, 2 μM for O=C(Cc1ccc(C2=NCCN2)cc1)N[C@@H]1C(=O)N2C(C(=O)O)=C(CSc3nncs3)CS[C@H]12 [TBBL-0000316] ?
Solution: 86.1

Exercise: What measured remaining at 2 h, 2 μM goes with CN(C)C(=S)SCC1=C(C(=O)O)N2C(=O)[C@@H](NC(=O)Cc3cccs3)[C@H]2SC1 [TBBL-0000009] ?
Solution: 97.9

Exercise: Data request, read-out remaining at 2 h, 2 μM, for O=C(Cc1cccs1)N[C@@H]1C(=O)N2C(C(=O)O)=C(CSc3cccc[n+]3[O-])CS[C@H]12 [TBBL-0000001]
Solution: 77.3

====

- System: E. coli
- Assay notes: Microbial spectrum, E. coli
- Format: cell-based, Escherichia coli
- Test context: clavulanate 4 μg/mL; Table S4
Exercise: for every item that follows, state its recorded E.coli R + CLAV (MIC90).
Provide the reading as a plain figure in µM.

Exercise: // returns reported E.coli R + CLAV (MIC90) for input CCc1cc[n+](CC2=C(C(=O)[O-])N3C(=O)[C@@H](NC(=O)Cc4cccs4)[C@H]3SC2)cc1
Solution: 7

Exercise: Please report the recorded E.coli R + CLAV (MIC90) for Cn1c(SCC2=C(C(=O)O)N3C(=O)[C@@H](NC(=O)Cc4ccccc4CN)[C@H]3SC2)nnc(O)c1=O .
Solution: 13.4

Exercise: Which E.coli R + CLAV (MIC90) is listed for Cn1nnnc1SCC1=C(C(=O)O)N2C(=O)[C@@H](NC(=O)CSc3cc(Cl)ccc3Cl)[C@H]2SC1 ?
Solution: 13.3

====

- Assay notes: In vitro plasma stability, cynomolgus monkey plasma
- Test context: 2 μM, 37 °C, time point 120 min
Attribute measured: Plasma stability % Remaining, Monkey (%)
Respond with the bare value in %.

Exercise: What Plasma stability % Remaining, Monkey value was documented for this compound, CON=C(C(=O)N[C@@H]1C(=O)N2C(C(=O)O)=C(CSc3cccc[n+]3[O-])CS[C@H]12)c1csc(N)n1 ?
Solution: 120.8

Exercise: Need Plasma stability % Remaining, Monkey of NCc1ccccc1CC(=O)N[C@@H]1C(=O)N2C(C(=O)O)=C(CSc3nnnn3CCO)CS[C@H]12 , thanks.
Solution: 85.7

Exercise: Data request, read-out Plasma stability % Remaining, Monkey, for Cn1nnnc1SCC1=C(C(=O)O)N2C(=O)[C@@H](NC(=O)Cc3ccc(C4=NCCCN4)cc3)[C@H]2SC1
Solution: 104.7

Exercise: Give the measured Plasma stability % Remaining, Monkey of Cn1c(SCC2=C(C(=O)O)N3C(=O)[C@@H](NC(=O)Cc4ccccc4CN)[C@H]3SC2)nnc(O)c1=O .
Solution: 25.6

Exercise: What value of measured Plasma stability % Remaining, Monkey is listed for NCCSC=CC1=C(C(=O)O)N2C(=O)C(NC(=O)CSc3ccc(Cl)c(Cl)c3)C2SC1 (centres unmarked) ?
Solution: 2.0

Exercise: Returns the measured Plasma stability % Remaining, Monkey for the input compound. Input: CNCc1ccccc1CC(=O)N[C@@H]1C(=O)N2C(C(=O)O)=C(CSc3nnnn3C)CS[C@H]12
Solution: 101.7

Exercise: GET /values?readout=Plasma stability % Remaining, Monkey&item= CCc1nnc(SCC2=C(C(=O)O)N3C(=O)[C@@H](NC(=O)Cc4ccc(C5=NCCN5)cc4)[C@H]3SC2)s1
Solution: 110.3

Exercise: Look up Plasma stability % Remaining, Monkey: CCCc1nnc(SCC2=C(C(=O)O)N3C(=O)[C@@H](NC(=O)Cc4ccc(C(=N)N)cc4)[C@H]3SC2)s1
Solution: 103.9

Exercise: Which Plasma stability % Remaining, Monkey reading was recorded for the compound CC=CC(=O)OCC1=C(C(=O)O)N2C(=O)[C@@H](NC(=O)C(=NO)c3cccs3)[C@H]2SC1 ?
Solution: 22.0

Exercise: Fill in: Plasma stability % Remaining, Monkey of CCc1nnc(SCC2=C(C(=O)O)N3C(=O)[C@@H](NC(=O)Cc4ccc(C5=NCCCN5)cc4)[C@H]3SC2)s1 is ___
Solution: 13.4

Exercise: What value of Plasma stability % Remaining, Monkey has been reported for the following compound? O=C(O)C1=C(CSc2cccc[n+]2[O-])CS[C@@H]2[C@H](NC(=O)C(F)c3ccccc3)C(=O)N12 (some centres unmarked)
Solution: 103.9
